- Test system: CCRF-CEM leukemia
- Assay remarks: NCI tumour cell line growth inhibition, 48 h
Endpoint label: TGI

CSC1=NC(=O)CCN1C1OCC(OC(C)=O)C(OC(C)=O)C1OC(C)=O (stereo not given); > 31.6 µM

Need TGI, item Cn1c(=O)c2c(nc(N3CCOCC3)n2CCCNCC(O)c2ccc(O)c(O)c2)n(C)c1=O (stereo not given) > 100 µM

Entry Cc1ccc([N+]2=NC(c3ccc([N+](=O)[O-])cc3)=NN(c3ccccc3)C2)cc1 has what TGI? > 100 µM

Which value of TGI has been reported for CCCCCCCC(=O)SCC/C=C/[C@@H]1CC(=O)NCc2cccc(n2)C2=N[C@@](C)(CS2)C(=O)N[C@@H](C(C)C)C(=O)O1 in the records? > 33.3 µM

Dear colleague, I am looking for the recorded TGI of the following compound: COc1cc2c(cc1OCCCOc1cc3c(cc1OC)C(=O)N1CC(F)(F)C[C@H]1C=N3)N=C[C@@H]1CC(F)(F)CN1C2=O 1.06 µM

* * *

In this section we review reported TGI values for a set of molecules.
- System: UACC-257 melanoma
- Assay remarks: NCI tumour cell line growth inhibition, 48 h

COc1cc(/C=C2/CCCc3ccccc3C2=O)cc(OC)c1OC; > 56.1 µM
CCOC(=O)c1ccc(OCc2nc3cc(C(F)(F)F)ccc3nc2-c2ccccc2)cc1; > 100 µM
CCOc1cccc2sc(N)nc12; > 100 µM
C/C(=N\NC(=O)C[n+]1ccccc1)c1sc(-c2nc(C)c(/C(C)=N/NC(=O)C[n+]3ccccc3)s2)nc1C; > 100 µM
CSC1=NC(=O)CCN1C1OCC(OC(C)=O)C(OC(C)=O)C1OC(C)=O (configuration not stated); > 31.6 µM

Can you look up TGI on UACC-257 melanoma for COc1ccc2c(c1)[n+]([O-])c(/C(C)=N/NC(N)=S)c(C)[n+]2[O-] ? > 100 µM

Form field: TGI recorded for Cc1ccc2c(=O)cc(-c3cc4ccccc4s3)[nH]c2n1 with UACC-257 melanoma (enter value) > 100 µM

Report TGI for COc1ccc(C(=O)NNC(=O)c2nsc3ccccc23)cc1 tested on UACC-257 melanoma. > 100 µM

Notebook: pull reported TGI for UACC-257 melanoma, entry NNC(=O)CC(=O)Nc1ccccc1Cl > 100 µM

Observed TGI on UACC-257 melanoma for Nc1ncnc2c1ncn2C1OC(CO)CC1O (configuration not stated) , please. > 100 µM

Give UACC-257 melanoma TGI for CN1C(=O)C(C)(C)NS1(=O)=O > 100 µM

Param readout = TGI; param system = UACC-257 melanoma; param query = Cn1ncc2c(=O)[nH]c(-c3ccccc3)nc21 ; response: value > 100 µM

* * *

- Test system: T-47D breast
- Assay remarks: NCI tumour cell line growth inhibition, 48 h
// TGI lookup, one value per entry

Sample records with TGI:
CCC(C#N)NCc1ccc(CNC(C#N)CC)cc1 (stereo not drawn); > 100 µM
O=c1ncc(I)c[nH]1; > 100 µM

Switching to the query record.
Using the record for C[C@]12CC/C(=N\O)C[C@@H]1CC[C@@H]1[C@@H]2CC[C@]2(C)/C(=N/O)CC[C@@H]12 , report its TGI. > 100 µM

* * *

# TGI listing for each entry below
- Tested on: ACHN renal
- Assay remarks: NCI tumour cell line growth inhibition, 48 h

Observe how each entry below is paired with its result.
CC1(C)CCc2cc3c(cc2O1)OC(C)(C)CC3=O; > 100 µM
CSC1=NC(=O)CCN1C1OCC(OC(C)=O)C(OC(C)=O)C1OC(C)=O (configuration not stated); > 31.6 µM
COc1cc(C(=O)O)cc2c1[nH]c1ccccc12; > 25 µM

Query: TGI; subject: O=c1ncc(I)c[nH]1 > 100 µM

Give its TGI value. Item: CCN1C(=O)/C(=C\c2coc3ccccc3c2=O)SC1=S > 100 µM

Which measured TGI value corresponds to O=C(CC(C(=O)c1cccs1)c1ccsc1)c1ccc(Cl)cc1 (configuration not stated) ? > 100 µM

Fill blank: measured TGI of the compound CC1OC1P(=O)(O)O (configuration not stated) is ____. > 100 µM

Report TGI for O=S(=O)(Nc1nc2ccccc2nc1Nc1cccc2ccccc12)c1ccccc1 please. > 100 µM
